Entry source: ChEMBL document CHEMBL3507680

Measured cytotoxicity at 70.5 h by item
Test description: Human HepG2 cell viability assay in 384 well format
Type: toxicity, cell-based
Design: dose 125 nL, time 70.5 hour; concentration not given beside the values
Conditions used: HepG2 cells, read-out: Inhibition
Metric: cytotoxicity at 70.5 h (%)

1. Cc1cccc(CC(=O)Nc2cnn(C3CCOC3)c2)c1 (stereo unspecified) ... -13.6
2. CCCN(CC)Cc1ccc(C(=O)NCC2COCCO2)c(=O)[nH]1 (stereo unspecified) ... -6.16
3. Cc1ncc(-c2ccncc2)c(C2CCCN(C(=O)c3ccno3)C2)n1 (stereo unspecified) ... 5.49
4. CN1CCN(Cc2cnc3n2CCN(CCc2ccccc2)C3)CC1 ... 19.5
5. COCCN(C)C(=O)c1ccc2onc(-c3coc(C)n3)c2c1 ... -16.8
6. CCCc1nnc(N2CC[C@@](O)(C3CCOCC3)[C@H](C)C2)s1 ... 3.18
7. O=C(C1CC1)N1CCC2(CCN(Cc3cccc(F)c3)CC2)CC1 ... -0.144
8. COc1cccc(C(O)Cn2ncc3ncccc3c2=O)c1 (stereo unspecified) ... -10.1
9. COc1ccc(COCC(O)CNC(=O)c2cc(C)oc2C)cc1 (stereo unspecified) ... 1.97
10. Cn1c(=O)[nH]c(=O)n2c(CC(=O)NCc3ccccc3)cnc12 ... -12.3
11. CN(C)C(=O)CN1C[C@@H]2CC[C@H](C1)N(Cc1ccc3nsnc3c1)C2 ... 3.82

* * *

Test description: Human HepG2 cell viability assay in 384 well format
Format: toxicity, cell-based
Set-up: dose 125 nL, time 70.5 hour; concentration not given beside the values
Conditions used: HepG2 cells, read-out: Inhibition
Please use yes whenever cytotoxicity at 70.5 h is not below 10%, and no whenever it is.

1) COc1cccc(CN2CCC3(CC2)CCN(c2ncccn2)C3)c1 ... no
2) COc1ccc(OC2CCN(C(=O)CCc3n[nH]c(C)n3)CC2)cc1 ... yes
3) CSc1ccccc1NC(=O)N1C[C@@H](N(C)C)[C@H](c2ccc(C)cc2)C1 ... no
4) CC(c1ccon1)N(C)C(=O)C1CCN(C(=O)C2CC2)CC1 (stereo unspecified) ... no
5) CCOc1cccc(COC(=O)c2scnc2C)n1 ... no
6) Clc1ccc2oc(C3CCN(Cc4cccnc4)CC3)nc2c1 ... yes
7) CC(C)NC(=O)N1CCC2(COCc3cnc(N4CCOCC4)nc32)C1 (stereo unspecified) ... no
8) COc1ccc(C2(NCc3noc(C4CC4)n3)CCOCC2)cc1 ... no
9) Cc1ccccc1C(CNC(=O)CSc1nnc(N)s1)N(C)C (stereo unspecified) ... no
10) Cc1ccccc1CN1CCC2(CCCN2C(=O)C(C)C)CC1 ... yes
11) CCN1CCN(C2CCN(Cc3nnc(C4CC4)o3)CC2)C1=O ... yes

* * *

Test description: Human HepG2 cell viability assay in 384 well format
Type: toxicity, cell-based
Design: dose 125 nL, time 70.5 hour; concentration not given beside the values
Conditions used: HepG2 cells, read-out: Inhibition
Metric: cytotoxicity at 70.5 h (%)

1) O=C(CCn1cncn1)NC1CCc2nccn2C1 (stereo not drawn) ... -0.747
2) O=C(CCNC(=O)c1ccoc1)Nc1ccccc1F ... -8.3
3) CN1CCN(C[C@H]2OC[C@@H]3CCN(C(=O)c4cnccn4)C[C@@H]32)CC1 ... -2.22
4) CCc1cc(CN(C)C(=O)CN2CC(Cc3ccccc3)CC2=O)on1 (stereo not drawn) ... 2.31
5) CC(C)NC(=O)N(C)C(c1cccc(F)c1)c1ccccn1 (stereo not drawn) ... -7.96
6) COc1c(C)cnc(CN(C)C(=O)c2cccnc2N(C)C)c1C ... -0.657
7) COCC(=O)N1CC[C@H]2C[C@H](C)O[C@@H]2C1 ... -7.04
8) CCN1CCCN(c2ncccc2C(=O)N2CCCCC2)CC1 ... 9.71
9) CC(C)C(C(=O)NCc1ccccc1-n1cccn1)N(C)C (stereo not drawn) ... -7.79
10) CCCN(CC)Cn1ncc2cn(-c3ccccc3)nc2c1=O ... -2.92
11) Cc1nc[nH]c1CN1CCCN(c2nc3ccccc3s2)CC1 ... -2.7
12) CCn1cc(CN2CCCN(C(=O)c3sc(C)nc3C)CC2)cn1 ... 4.77
13) Cc1occc1C(=O)N1CCc2ncnc(-c3cnn(C)c3)c2CC1 ... -8.07
14) CC1CCN(S(=O)(=O)NCc2ccccc2Cn2cccn2)CC1 ... 14.5
15) Cc1nc(N(CCC(N)=O)Cc2ccccc2)c2nc(C)oc2n1 ... 9.6
16) CN1CCN(CC(=O)NCc2ccco2)Cc2ccccc21 ... -13.5
17) Cc1n[nH]c2c1C(c1ccsc1)SCC(=O)N2 (stereo not drawn) ... 8.67
18) COCC1CN(CC2CC2)Cc2nn(C)cc21 (stereo not drawn) ... 13.1
19) O=C(Nc1ccccc1)C1CN(Cc2cccs2)CC12CCOCC2 (stereo not drawn) ... -6.1
20) CCOc1ccc(CN(C)C(C)C(=O)Nc2cc(C)no2)cc1 (stereo not drawn) ... -5.64
21) CN(C)S(=O)(=O)NCc1cccnc1Oc1ccc(F)cc1F ... -3.42
22) Cc1nc(C)c(C(=O)N2CCc3nc4c(C)csc4c(=O)n3CC2)s1 ... 0.911
23) CN(C)C(=O)CCC(=O)N1CCC2(CC1)COC2 ... 12.8
24) c1cc(CN2CCO[C@H]3[C@H](OCC4CCCC4)CC[C@@H]32)ccn1 ... -5.29
25) COc1ccccc1CN1CC[C@]2(C[C@@H](OC)CO2)C1 ... -4.33
26) Cc1nc2ccc(-n3ncnc3[C@@H]3CCCN3S(C)(=O)=O)cc2s1 ... 12.3
27) CCSc1ncc(CN2CCN(c3ccc(C#N)cc3)C(=O)C2)cn1 ... -8.4
28) CC(C)CN1CCC(NC(=O)c2ccc(Cl)cc2Cl)CC1 ... -1.21
29) CS(=O)(=O)N1CC[C@H](c2nc3ccc(C(F)(F)F)cc3[nH]2)C1 ... -4.96
30) CN(Cc1ccco1)[C@@H]1CN(Cc2nccs2)C[C@@H]2CCCO[C@@H]21 ... -5.05
31) Cc1cccc(C2N3CCC4(CC3)c3[nH]c5ccccc5c3CCN24)n1 (stereo not drawn) ... 5.13
32) Cc1csc(CCNC(=O)C2CCN(CC(N)=O)CC2)n1 ... 8.97
33) CN1C[C@@H](F)[C@@H](OCc2nc3ccccc3[nH]2)C1 ... -5.45
34) N#Cc1cccc(OCCN2CCCC2C(=O)NC2CC2)c1 (stereo not drawn) ... 4.05
35) Cc1nc(CN2CCN(CCOc3ccc(C(C)C)c(C)c3)CC2)no1 ... 8.91
36) CC(=O)NCCOc1c(C)cccc1C ... -4.39
37) Cc1ccccc1C(C)NC(=O)c1ccc(=O)n(C)c1 (stereo not drawn) ... -4.64
38) Cn1[nH]c(CNc2cccc(Cl)c2)nc1=O ... -0.326
39) Cc1nc(CCN2CCCCC2)n(-c2ccc(F)cc2)n1 ... 16.5
40) CCNC(=O)NC(=O)CSC(C)c1ccccc1F (stereo not drawn) ... -9.82
41) Cc1cc(-c2nn3c(C)nnc3s2)n[nH]1 ... 20
42) O=C(c1ccco1)N1CCCC2(CCN(c3nncs3)C2)C1 (stereo not drawn) ... -5.1
43) CC(C)c1nnc2n1CCN(Cc1cc(Cl)c3c(c1)OCO3)C2 ... -1.27
44) CC(=O)Nc1cccc(Cn2nc(C)nc2C)c1 ... -6.2
45) O=C(Cc1c(F)cccc1Cl)Nc1cc(N2CCCC2)ncn1 ... -2.78
46) CCN(CC)C(=O)Cn1c(-c2ccc(Cl)cc2)nc(C)c(CCO)c1=O ... 0.81
47) COc1ccc(C(N)=O)cc1NCc1ncc(-c2cccs2)o1 ... -14
48) COC(=O)Cn1c(=O)nc2n1C(=O)N(c1ccc(Cl)cc1)C2 ... 8.74
